Catalogue of IC50 readings, one per entry.
- study_target: C1r (Homo sapiens, UniProt P00736)
- Sequence (P00736 464-705 limits assumed): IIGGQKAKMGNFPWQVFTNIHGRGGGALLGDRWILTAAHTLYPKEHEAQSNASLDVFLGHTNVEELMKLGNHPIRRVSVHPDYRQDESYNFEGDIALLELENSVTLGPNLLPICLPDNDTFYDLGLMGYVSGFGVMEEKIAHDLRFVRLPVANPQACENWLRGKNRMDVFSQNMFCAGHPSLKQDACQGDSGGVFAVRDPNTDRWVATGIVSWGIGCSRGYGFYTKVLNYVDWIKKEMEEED
- Sequence (P00736 18-463 limits assumed): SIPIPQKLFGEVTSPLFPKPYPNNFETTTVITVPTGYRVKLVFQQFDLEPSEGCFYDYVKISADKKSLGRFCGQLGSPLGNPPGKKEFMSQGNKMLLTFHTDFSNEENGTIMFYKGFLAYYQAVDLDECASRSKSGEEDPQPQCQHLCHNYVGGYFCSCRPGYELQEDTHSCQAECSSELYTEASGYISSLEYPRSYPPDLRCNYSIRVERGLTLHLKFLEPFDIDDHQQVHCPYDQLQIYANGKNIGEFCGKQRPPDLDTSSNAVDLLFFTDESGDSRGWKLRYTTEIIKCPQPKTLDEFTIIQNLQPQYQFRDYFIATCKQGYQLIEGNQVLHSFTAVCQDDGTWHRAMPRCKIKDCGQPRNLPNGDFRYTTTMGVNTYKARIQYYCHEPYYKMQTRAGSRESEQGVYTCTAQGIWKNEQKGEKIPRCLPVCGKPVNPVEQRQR

smiles_structure	IC50 [nM]
N=C(N)Nc1ccc(CCc2ccc(C(=O)Oc3ccc4cc(C(=N)N)ccc4c3)o2)cc1	200
COc1ccc2oc(C(=O)Oc3ccc4cc(C(=N)N)ccc4c3)cc2c1	4000
COc1ccc2c(c1)c(CC(=O)Oc1ccc3cc(C(=N)N)ccc3c1)c(C)n2C(=O)c1ccc(Cl)cc1	400
CC(=O)OCc1ccc(C(=O)Oc2ccc3cc(C(=N)N)ccc3c2)o1	300
